- System: IGROV-1
- TEST NAME: NCI tumour cell line growth inhibition, 48 h
Calls of active or inactive are those of the source. Cut-off read from the data, not from the text of the source: active = GI50 up to about 1.1 µM and inactive = higher. Non-standard residues stand in square brackets, D forms with d. Residues, ends and D or L forms follow the SMILES beside them. *: point of attachment. NMeF = CN[CH](Cc1ccccc1)C(=O)O; NMeV = CN[CH](C(=O)O)C(C)C; Boc = CC(C)(C)OC(=O)*; OBn = c1ccc(CO*)cc1
Would you mind answering with one of these outcomes? active, inactive

Recorded test outcome, item O=C(c1ccccc1)c1c(CC(O)c2ccncc2)n(C(=O)c2ccccc2)c2ccccc12 (centres undefined) inactive

Could you kindly confirm the outcome this assay logged for `C/C(=N\Nc1ccc2ccccc2n1)c1ccccc1O` ? inactive

Which outcome was entered for the compound COC(=O)[C@]1(c2cc3ccccc3[nH]2)CC2CN(CC(=O)N(C)OC)C1CC2(OC)OC (some centres undefined) in this test? inactive

Hi, sorry to bother you, what did the test record for CC1CCC2c3c([nH]c4ccccc34)C3C(=O)N(C4CCCCC4)C(=O)C3C2C1 (centres undefined) ? inactive

Each compound tested received a call. Report the one for `Clc1ccc2ns[s+]c2c1` . inactive

Outcome logged for `N#Cc1sc2c(c1O)c(=O)n(-c1ccccc1)c(=S)n2-c1ccccc1` in this assay: inactive

So what was the verdict on `Oc1ccc2c(O)cc(-c3ccccc3)nc2c1` in this test? inactive

I'd appreciate the recorded outcome for `C=CCOC(=O)c1c(C)[n+]([O-])c2cc(Cl)c(Cl)cc2[n+]1[O-]` from this test. inactive

Hello, I am checking results. What call was entered for COC1=CCC2=C(CCN(C(=O)C3CCC3)C2Cc2ccc(OC)c(O)c2)C1 (centres undefined) ? inactive

Answer briefly: the call reported for `COc1ccc2[nH]c3c(C)c4c(c(C)c3c2c1)CN(C)C=C4` in this assay. inactive

Please state the recorded outcome for this compound: COC(=O)C1(NC(=O)C(Cc2ccccc2)N(C(=O)OC(C)(C)C)C(=O)OC(C)(C)C)CCCC1 (centres undefined) inactive

What did this assay record as the result for `COc1ccc(/C=C\c2cc(OC)c(OC)c(OC)c2)c(O)c1O` ? inactive

For `CCCCc1ccc(Nc2nc(S)c3ncn(COCCO)c3n2)cc1` , what call appears in the results of this test? inactive

Name the outcome recorded for O=C(c1ccccc1)C(c1ccccc1)C1(O)C(=O)Nc2ccc([N+](=O)[O-])cc21 (centres undefined) in the assay. inactive

GET /call?item= `COC(=O)/C(=C(\C)NC(C)=O)c1c(C(=O)OC)[nH]c2ccccc12` returns the recorded outcome of this test. inactive

Please indicate how the test categorized `Cn1c(=O)oc2cc(C(=S)N3CCCCC3)ccc21` . inactive

Can you look up the reported call for `CN(C)c1nc(NN)c2c(-c3ccccc3)c(-c3ccccc3)oc2n1` for me? inactive

For `O=C(/C=C/c1ccc(OCCCOc2ccc(/C=C/C(=O)c3ccc(Cl)cc3)cc2)cc1)c1ccc(Cl)cc1` , what call appears in the results of this test? inactive

Per the assay record, what outcome was assigned to `Cc1ccc(C2=CC(=O)/C(=C\C(=O)c3ccc(Cl)cc3)O2)cc1` ? inactive

# lookup: test call for `Cc1ccc(NC(=O)c2ccccc2C(=O)O)cc1C` inactive

Would you mind telling me which call this test gave `COc1ccc(CNc2nc3c(NC(C)=O)cc(C(F)(F)F)cc3nc2-c2ccccc2)cc1OC` ? inactive

Hi, do you know how CC(C)C(NC(=O)OC(C)(C)C)C(=O)N(C)C(Cc1ccccc1)C(=O)N(C)C(C(=O)OCc1ccccc1)C(C)C (stereo not drawn) (Boc-Val-[NMeF]-[NMeV]-OBn; configuration not given here) came out in this test? inactive

For this compound, state the assay outcome: `C[C@@H](NC(=O)[C@@H]1C[C@]1(C)CO)c1cccc2ccccc12` inactive

Record request — test call for CC(NNC(=O)c1ccncc1)c1ccc(Cl)c(Cl)c1 (centres undefined) inactive

Name the outcome recorded for `COc1ccc2c(c1)C(=O)C(=O)c1cc(O)c(OC)c(OC)c1-2` in the assay. active

I'd appreciate the recorded outcome for C[C@]12CCc3nonc3C1CC[C@@H]1C2CC[C@]2(C)C(=O)CCC12 (some centres undefined) from this test. inactive

Could you check what this test reported for C[n+]1c2n(c3nc(N)[nH]c(=O)c31)C1OC(C2)C(O)C1O (centres undefined) ? inactive

I would be grateful if you could indicate the recorded call for `CCc1n[nH]c(=O)n1N` . inactive

Assay result, entry CC(C)(C)C(=O)OCC1CCC(n2cnc3c(=O)[nH]c(N)nc32)O1 (centres undefined) — outcome? inactive

Any idea what this test logged for `C(=N/NC1=NCCN1)/c1c2ccccc2c(/C=N\NC2=NCCN2)c2ccccc12` ? active

Give the logged outcome of this assay for the following compound: `COc1cc(CNC(=O)CCCCCCCC/C=C/Br)ccc1O` inactive

Recorded test outcome, item `Fc1cc(-c2cc(-c3ccccc3)no2)c(Cl)cc1Cl` inactive

Which outcome was entered for the compound `Clc1c2ncccc2cc2nn[nH]c12` in this test? inactive

State the result this test recorded for `COc1ccc2c(c1)/C(=C\c1c(Cl)nc3n1CCS3)C(=O)N2` . inactive

Outcome logged for `O=c1oc2cc(O)ccc2cc1-c1nc2ccccc2s1` in this assay: inactive

Short answer needed: outcome of this test for C=C1CC(C)(COc2ccc3c(C)c(Cl)c(=O)oc3c2)OC1=O (centres undefined) ? inactive

Which result was noted for this compound in the test: `COc1ccc2c(c1)CCCN2S(=O)(=O)c1ccccc1[N+](=O)[O-]` inactive

Hey, what did the test say about O=C1C2=Cc3ccccc3OC2(O)Oc2ccc(O)cc21 (centres undefined) ? inactive

Outcome? O=C(CC(C(=O)c1ccsc1)c1cccs1)c1cccs1 (centres undefined) inactive
